Recorded values, source ChEMBL document CHEMBL1961873.

Biological target: Vascular endothelial growth factor receptor 1 (Homo sapiens) (UniProt P17948);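 note: values are mean percent inhibition of FLT1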
Sequence (P17948 whole entry): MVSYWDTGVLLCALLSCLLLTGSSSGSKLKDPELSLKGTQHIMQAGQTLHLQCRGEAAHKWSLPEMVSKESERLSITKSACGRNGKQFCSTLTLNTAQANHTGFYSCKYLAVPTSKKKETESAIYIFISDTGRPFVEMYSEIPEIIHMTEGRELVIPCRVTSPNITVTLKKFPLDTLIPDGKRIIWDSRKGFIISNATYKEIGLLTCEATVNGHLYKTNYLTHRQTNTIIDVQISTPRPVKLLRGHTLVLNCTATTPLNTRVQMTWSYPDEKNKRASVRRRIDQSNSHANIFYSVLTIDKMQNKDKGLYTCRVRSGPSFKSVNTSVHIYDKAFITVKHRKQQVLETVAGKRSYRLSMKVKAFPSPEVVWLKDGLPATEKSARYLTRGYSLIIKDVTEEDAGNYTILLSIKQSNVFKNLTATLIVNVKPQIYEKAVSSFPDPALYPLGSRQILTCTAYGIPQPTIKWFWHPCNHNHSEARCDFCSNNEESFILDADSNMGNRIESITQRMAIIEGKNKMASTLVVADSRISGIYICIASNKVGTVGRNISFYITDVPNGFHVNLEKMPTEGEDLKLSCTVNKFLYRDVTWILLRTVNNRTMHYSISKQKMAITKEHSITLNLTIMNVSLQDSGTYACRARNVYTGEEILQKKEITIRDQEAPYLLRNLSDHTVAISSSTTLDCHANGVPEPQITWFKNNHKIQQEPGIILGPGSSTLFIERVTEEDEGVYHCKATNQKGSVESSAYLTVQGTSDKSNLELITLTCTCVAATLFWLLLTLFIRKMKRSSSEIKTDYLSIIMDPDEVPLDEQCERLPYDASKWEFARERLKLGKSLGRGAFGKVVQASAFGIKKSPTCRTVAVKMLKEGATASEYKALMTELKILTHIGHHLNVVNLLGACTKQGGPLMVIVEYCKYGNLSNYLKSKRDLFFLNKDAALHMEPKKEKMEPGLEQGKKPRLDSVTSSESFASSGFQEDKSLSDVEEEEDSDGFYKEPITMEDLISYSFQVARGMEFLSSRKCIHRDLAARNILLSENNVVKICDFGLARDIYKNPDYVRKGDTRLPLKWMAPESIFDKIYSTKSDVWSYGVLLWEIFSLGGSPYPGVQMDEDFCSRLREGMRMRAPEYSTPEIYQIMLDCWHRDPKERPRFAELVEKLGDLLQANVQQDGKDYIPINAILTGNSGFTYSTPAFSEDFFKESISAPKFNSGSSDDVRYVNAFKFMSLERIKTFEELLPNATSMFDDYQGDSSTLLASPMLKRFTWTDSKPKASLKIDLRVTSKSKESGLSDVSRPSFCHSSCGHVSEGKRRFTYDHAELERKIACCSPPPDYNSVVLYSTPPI
Details: at 0.1 µM

{"STRUCTURE SMILES STRING": "Cc1cccc(Nc2ncc(-c3ccccc3)o2)c1", "inhibition, %": 1.05}
{"STRUCTURE SMILES STRING": "CCN1CCC(CC(=O)Nc2n[nH]c3nnc(-c4cccc(F)c4F)cc23)CC1", "inhibition, %": 0.64}
{"STRUCTURE SMILES STRING": "N#Cc1c(NC(=O)c2ccc(F)cc2)sc2c1CCCC2", "inhibition, %": 0.3}
{"STRUCTURE SMILES STRING": "COC(=O)Nc1nc2ccc(Oc3ccc(NC(=O)Nc4cccc(Cl)c4)cc3)cc2[nH]1", "inhibition, %": 28.6}
{"STRUCTURE SMILES STRING": "CN1CCC(n2cnc(-c3ccc(F)cc3)c2-c2ccnc(N)n2)CC1", "inhibition, %": -0.81}
{"STRUCTURE SMILES STRING": "NS(=O)(=O)c1ccc(Nc2ncc(-c3ccccc3)o2)cc1", "inhibition, %": 4.95}
{"STRUCTURE SMILES STRING": "O=C(Nc1n[nH]c2cc(-c3ccc(F)cc3)ccc12)C1CC1", "inhibition, %": -0.63}
{"STRUCTURE SMILES STRING": "COC(=O)c1sc(-n2cnc3cc(OC)c(OC)cc32)cc1OCc1ccccc1C(F)(F)F", "inhibition, %": 1.32}
{"STRUCTURE SMILES STRING": "CNC(=O)c1cccc(C#Cc2cncnc2Nc2ccc(OCc3cccc(F)c3)c(Cl)c2)c1", "inhibition, %": 1.95}
{"STRUCTURE SMILES STRING": "CCNC(=O)O[C@H]1CN[C@H](C#Cc2cc3ncnc(Nc4ccc(OCc5cccc(F)c5)c(Cl)c4)c3s2)C1", "inhibition, %": 2.51}

====

Measured inhibition of individual entries
Target: Protein kinase C beta type (Homo sapiens) (UniProt P05771);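 note: mean inhibition value, enzyme form tested was the PKC-beta1 splice variant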
Sequence (P05771 2-671 limits assumed): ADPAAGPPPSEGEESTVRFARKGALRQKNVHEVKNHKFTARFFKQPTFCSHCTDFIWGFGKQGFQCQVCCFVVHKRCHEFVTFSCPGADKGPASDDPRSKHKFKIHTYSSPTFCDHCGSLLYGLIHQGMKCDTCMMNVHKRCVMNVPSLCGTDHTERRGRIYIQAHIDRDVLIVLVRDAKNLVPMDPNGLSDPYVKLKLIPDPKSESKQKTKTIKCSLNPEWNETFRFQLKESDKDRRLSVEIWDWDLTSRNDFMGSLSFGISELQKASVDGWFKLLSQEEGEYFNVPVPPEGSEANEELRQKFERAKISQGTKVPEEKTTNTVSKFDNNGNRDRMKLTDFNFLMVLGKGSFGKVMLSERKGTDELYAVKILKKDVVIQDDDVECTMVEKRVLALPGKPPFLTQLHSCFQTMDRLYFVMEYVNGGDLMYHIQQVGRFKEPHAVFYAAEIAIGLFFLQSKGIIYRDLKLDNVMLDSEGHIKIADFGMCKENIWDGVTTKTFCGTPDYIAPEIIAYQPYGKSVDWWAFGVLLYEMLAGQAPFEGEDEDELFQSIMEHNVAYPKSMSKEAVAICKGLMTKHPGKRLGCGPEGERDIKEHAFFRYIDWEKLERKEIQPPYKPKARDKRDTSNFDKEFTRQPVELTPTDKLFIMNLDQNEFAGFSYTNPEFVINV
Conditions: at 1 µM
Description: GSK_PKIS: PKC-beta1 (splice variant) mean inhibition at 1 uM [Nanosyn]

{"STRUCTURE SMILES STRING": "N#Cc1c(NC(=O)CN2CCOCC2)sc2c1CCCC2", "inhibition": "2.05%"}
{"STRUCTURE SMILES STRING": "NC(=O)c1sc(-n2cnc3ccc(C(F)(F)F)cc32)cc1OCc1ccccc1Br", "inhibition": "1.5%"}
{"STRUCTURE SMILES STRING": "CS(=O)(=O)CCNCc1coc(-c2ccc3ncnc(Nc4ccc(OCc5ccccc5)cc4)c3c2)c1", "inhibition": "-1%"}
{"STRUCTURE SMILES STRING": "CN1CCC(n2cnc(-c3ccc(F)cc3)c2-c2ccnc(Nc3ccccc3)n2)CC1", "inhibition": "51%"}
{"STRUCTURE SMILES STRING": "CCNC(=O)O[C@H]1CN[C@H](C#Cc2cc3ncnc(Nc4ccc(OCc5cccc(F)c5)c(Cl)c4)c3s2)C1", "inhibition": "-2.05%"}

====

Molecular target: Platelet-derived growth factor receptor alpha (Homo sapiens) (UniProt P16234)
Sequence (P16234 whole entry): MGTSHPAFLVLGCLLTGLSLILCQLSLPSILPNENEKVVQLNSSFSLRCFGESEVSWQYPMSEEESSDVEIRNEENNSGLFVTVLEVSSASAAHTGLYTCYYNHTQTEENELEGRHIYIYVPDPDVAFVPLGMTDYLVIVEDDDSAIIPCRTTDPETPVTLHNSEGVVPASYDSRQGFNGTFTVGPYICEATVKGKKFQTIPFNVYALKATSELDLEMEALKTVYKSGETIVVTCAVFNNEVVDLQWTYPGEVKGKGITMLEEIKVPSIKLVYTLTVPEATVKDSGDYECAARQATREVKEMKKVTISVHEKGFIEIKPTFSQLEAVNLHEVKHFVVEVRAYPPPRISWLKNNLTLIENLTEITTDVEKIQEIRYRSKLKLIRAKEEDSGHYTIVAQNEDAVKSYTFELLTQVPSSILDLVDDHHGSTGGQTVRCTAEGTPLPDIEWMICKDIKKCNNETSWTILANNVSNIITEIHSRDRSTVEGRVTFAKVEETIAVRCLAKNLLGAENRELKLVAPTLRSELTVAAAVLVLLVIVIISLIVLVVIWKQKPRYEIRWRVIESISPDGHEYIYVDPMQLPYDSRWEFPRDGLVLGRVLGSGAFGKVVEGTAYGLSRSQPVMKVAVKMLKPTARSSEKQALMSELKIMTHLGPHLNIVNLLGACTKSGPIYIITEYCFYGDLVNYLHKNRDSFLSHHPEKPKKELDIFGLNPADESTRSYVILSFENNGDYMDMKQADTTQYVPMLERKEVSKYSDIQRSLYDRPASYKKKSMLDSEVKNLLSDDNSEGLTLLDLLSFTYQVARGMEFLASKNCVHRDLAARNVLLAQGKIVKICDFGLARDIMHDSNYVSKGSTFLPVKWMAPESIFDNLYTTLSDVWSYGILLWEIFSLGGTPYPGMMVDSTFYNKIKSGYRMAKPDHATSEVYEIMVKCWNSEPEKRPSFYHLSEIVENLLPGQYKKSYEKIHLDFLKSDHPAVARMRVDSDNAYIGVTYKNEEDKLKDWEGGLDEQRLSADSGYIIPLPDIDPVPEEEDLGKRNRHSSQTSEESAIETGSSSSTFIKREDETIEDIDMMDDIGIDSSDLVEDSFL
Details: at 0.1 µM
Description: GSK_PKIS: PDGFRA mean inhibition at 0.1 uM [Nanosyn]
OBSERVABLE: inhibition (%)

{"STRUCTURE SMILES STRING": "Nc1nc(-c2cccc(Cl)c2)c(-c2ccc3ncccc3n2)s1", "VALUE OBSERVED": 8.04}
{"STRUCTURE SMILES STRING": "NC(=O)c1sc(-n2cnc3ccc(C(F)(F)F)cc32)cc1OCc1ccccc1Br", "VALUE OBSERVED": 4.59}
{"STRUCTURE SMILES STRING": "COc1ccc(-c2nn3ncccc3c2-c2ccnc(Nc3ccc4c(c3)OCCO4)n2)cc1", "VALUE OBSERVED": 6.34}
{"STRUCTURE SMILES STRING": "CCn1cc(-c2ccnc3[nH]ccc23)c(-c2cccc(NC(=O)Nc3ccc(OCc4ccccc4)cc3)c2)n1", "VALUE OBSERVED": 1.29}
{"STRUCTURE SMILES STRING": "Cc1cccc(Nc2ncc(-c3ccccc3)o2)c1", "VALUE OBSERVED": 7.16}
{"STRUCTURE SMILES STRING": "CCn1c(-c2nonc2N)nc2c(C#CC(C)(C)O)nc(OC[C@H](N)c3ccccc3)cc21", "VALUE OBSERVED": 4.66}
{"STRUCTURE SMILES STRING": "O=S(=O)(CCNCc1ccc(-c2ccc3ncnc(Nc4ccc(OCc5cccc(F)c5)c(Cl)c4)c3c2)o1)c1ccccc1", "VALUE OBSERVED": 11.9}
{"STRUCTURE SMILES STRING": "CNC(=O)c1cccc(C#Cc2cncnc2Nc2ccc(OCc3cccc(F)c3)c(Cl)c2)c1", "VALUE OBSERVED": 5.17}
{"STRUCTURE SMILES STRING": "CCN1CCC(CC(=O)Nc2n[nH]c3nnc(-c4cccc(F)c4F)cc23)CC1", "VALUE OBSERVED": 5.32}
